System: clot formation in whole blood
Experiment: Thromboelastography (TEG), whole blood stimulated with kaolin
Assay type: cell-based, human
Details: RNA 2.0 μM
Strand notation (5' to 3'): a small letter for the sugar, then the base; units joined by * are phosphorothioate-linked, units joined directly phosphodiester-linked; [ ] holds rarer units or linkages, { } end groups; capitals alone tell only the bases. r = 2'-OH (RNA); f = 2'-fluoro
Parameter Lag-time: see the listing below.
Number only, in min; omit the unit.

Example entries and their recorded answers appear below.
R9D-14T: prothrombin/thrombin aptamer, 58-base truncation of RNA9D-14, SEQ ID NO: 3 (GGCGGTCGATCACACAGTTCAAACGTAATAAGCCAATGTACGAGGCAGACGACTCGCC; 2'-fluoro at CT, RNA at AG, backbone and T or U not given here) [Aptamer R9D-14T] : 8.3
9.3Tmut: 9.3T mutant control, SEQ ID NO: 4 (AUGGGGACUGUGCCGCGUAAUGCUGCCUCCCCAU; 2'-fluoro at CU, RNA at AG, backbone not given here) [Aptamer 9.3Tmut, reference compound] : 7.3
11F7Tmut: 11F7T mutant control, SEQ ID NO: 6 (rGrArGrArGfCfCfCfCrArGfCrGrArGrAfUrArAfUrAfCfUfUrGfUrAfCfCfCrGfCfUfCfUfU) [Aptamer 11F7Tmut, reference compound] : 5.1

Reported Lag-time for 9.3T: FIXa aptamer, 2'-fluoropyrimidine modified RNA, SEQ ID NO: 1 (AUGGGGACUAUACCGCGUAAUGCUGCCUCCCCAU; 2'-fluoro at CU, RNA at AG, backbone not given here) [Aptamer 9.3T] : what is it? 29.9

====

Tested on: clot formation in whole blood
Assay: Thromboelastography (TEG), whole blood stimulated with kaolin
Assay type: cell-based, human
Settings: RNA 2.0 μM
Strand notation (5' to 3'): a small letter for the sugar, then the base; units joined by * are phosphorothioate-linked, units joined directly phosphodiester-linked; [ ] holds rarer units or linkages, { } end groups; capitals alone tell only the bases. r = 2'-OH (RNA); f = 2'-fluoro
In this section we review reported Max. Amplitude values for a set of substances.
Report the figure in mm without appending any unit label.

9.3T: FIXa aptamer, 2'-fluoropyrimidine modified RNA, SEQ ID NO: 1 (AUGGGGACUAUACCGCGUAAUGCUGCCUCCCCAU; 2'-fluoro at CU, RNA at AG, backbone not given here) [Aptamer 9.3T] : 55.9
9.3Tmut: 9.3T mutant control, SEQ ID NO: 4 (AUGGGGACUGUGCCGCGUAAUGCUGCCUCCCCAU; 2'-fluoro at CU, RNA at AG, backbone not given here) [Aptamer 9.3Tmut, reference compound] : 60.1
R9D-14T: prothrombin/thrombin aptamer, 58-base truncation of RNA9D-14, SEQ ID NO: 3 (GGCGGTCGATCACACAGTTCAAACGTAATAAGCCAATGTACGAGGCAGACGACTCGCC; 2'-fluoro at CT, RNA at AG, backbone and T or U not given here) [Aptamer R9D-14T] : 56.0

Dear colleague, I am looking for the recorded Max. Amplitude of the following substance: 11F7Tmut: 11F7T mutant control, SEQ ID NO: 6 (rGrArGrArGfCfCfCfCrArGfCrGrArGrAfUrArAfUrAfCfUfUrGfUrAfCfCfCrGfCfUfCfUfU) [Aptamer 11F7Tmut, reference compound] 65.8
